Known pEC50 of a selection of substances
Biological target: hGcgR (Homo sapiens, UniProt P47871)
Sequence (P47871 26-477): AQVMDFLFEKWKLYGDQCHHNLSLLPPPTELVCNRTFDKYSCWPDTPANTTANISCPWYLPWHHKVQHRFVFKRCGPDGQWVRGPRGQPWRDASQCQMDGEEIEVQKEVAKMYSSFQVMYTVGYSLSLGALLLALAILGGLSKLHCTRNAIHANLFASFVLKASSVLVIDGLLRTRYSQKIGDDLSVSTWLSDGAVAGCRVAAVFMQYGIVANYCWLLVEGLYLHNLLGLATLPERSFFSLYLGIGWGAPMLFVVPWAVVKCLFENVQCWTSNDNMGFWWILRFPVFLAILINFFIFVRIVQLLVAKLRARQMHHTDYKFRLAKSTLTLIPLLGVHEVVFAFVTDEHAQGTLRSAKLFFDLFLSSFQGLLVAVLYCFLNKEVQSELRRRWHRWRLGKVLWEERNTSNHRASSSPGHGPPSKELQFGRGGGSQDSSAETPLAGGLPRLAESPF
Assay: Functional cAMP activation in the presence of 0.1% casein (no HSA);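 also: intracellular cAMP rise after 30 min at 37 °C, read by HTRF against a cAMP standard curve, scaled from buffer only (0%) to maximal control ligand response (100%)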
Format: cell-based
Conditions: read-out: Relative cAMP EC50, hGcgR
pEC50: −log10 of the molar value. Starred links: 1 amine or outer side, 2 acyl side, 3 side chain; linkers in the order of their positions; H or OH if unused. Non-standard residues stand in square brackets, D forms with d. Groups on a side chain read outwards from the residue. No end group written: not given here. *: point of attachment. C18 diacid = O=C(O)CCCCCCCCCCCCCCCCC(=O)*; αMePhe(2-F) = C[C@](N)(Cc1ccccc1F)C(=O)O; γGlu = O=C(O)[C@H](CCC(=O)[*:2])N[*:1]; αMe4Pal = C[C@](N)(Cc1ccncc1)C(=O)O; αMeY = C[C@](N)(Cc1ccc(O)cc1)C(=O)O; 4Pal = N[C@@H](Cc1ccncc1)C(=O)O; αMeL = CC(C)C[C@](C)(N)C(=O)O; αMeS = C[C@](N)(CO)C(=O)O; Orn = NCCC[C@H](N)C(=O)O; AEEA = NCCOCCOCC(=O)O; Aib = CC(C)(N)C(=O)O
reported.property: pEC50

substance | test.value
H-Y[Aib]QGT[αMePhe(2-F)]TSD[4Pal]SILLDKK([γGlu-γGlu-C18 diacid])AQ[Aib]AFIE[αMe4Pal]LEEGGPSSGAPPPSGTE-NH2 [Example 552] | 8.60
H-Y[Aib]QGT[αMePhe(2-F)]TSDYSILLDKK([AEEA-γGlu-C18 diacid])AQ[Aib]AFIEFLEEGGPSSGAPPPSEG-NH2 [Example 412] | 8.63
H-Y[Aib]QGT[αMePhe(2-F)]TSD[4Pal]SILLDKK([γGlu-γGlu-C18 diacid])AQ[Aib]AFIEYLEEGGPSSGAPPPSGSEE-NH2 [Example 610] | 8.24
H-Y[Aib]QGT[αMePhe(2-F)]TSD[4Pal]SILLD[Orn]K([γGlu-γGlu-C18 diacid])AQ[Aib][Orn]FIE[αMeY]LEEGGPSSGAPPPSGTGE-NH2 [Example 674] | 8.68
H-Y[Aib]QGT[αMePhe(2-F)]TSD[4Pal]SILLDKK([γGlu-γGlu-C18 diacid])AQ[Aib]AFIEYLEEGGPSSGEPPPSGTGE-NH2 [Example 607] | 8.05
Y[Aib]QGT[αMePhe(2-F)]TSD[4Pal]SI[αMeL]LD[Orn]K([AEEA-γGlu-C18 diacid])AQ[αMe4Pal][Orn]FI[dE][αMeY]LIEGGPSSGEPPPEGT[dE]-NH2 [Example 691] | 8.61
H-Y[Aib]QGT[αMePhe(2-F)]TSD[4Pal][αMeS]I[αMeL]LD[Orn]K([γGlu-γGlu-C18 diacid])AQ[Aib][Orn]FI[dE][αMeY]LAEGGPSSGEPPPSGSEE-NH2 [Example 589] | 8.39
H-Y[Aib]QGT[αMePhe(2-F)]TSD[4Pal][αMeS]I[αMeL]LD[Orn]K([AEEA-γGlu-C18 diacid])AA[Aib]EFI[dE][αMeY]LIEGGPSSGAPPPSGQ-OH [Example 722] | 8.77
H-Y[Aib]QGT[αMePhe(2-F)]TSD[4Pal]SI[αMeL]LD[Orn]K([AEEA-γGlu-C18 diacid])AQ[αMe4Pal][Orn]FI[dE][αMeY]LIEGGPSSGEPPPEAE-NH2 [Example 676] | 8.63
H-Y[Aib]QGT[αMePhe(2-F)]TSD[4Pal][αMeS]I[αMeL]LD[Orn]K([γGlu-γGlu-C18 diacid])AQ[Aib][Orn]FI[dE][αMeY]LSEGGPSSGEPPPSGAEE-NH2 [Example 567] | 8.23
H-Y[Aib]QGT[αMePhe(2-F)]TSD[4Pal]SILLDKK([γGlu-γGlu-C18 diacid])AQ[Aib]AFIE[αMeY]LEEGGPSSGAPPPSGSGE-NH2 [Example 666] | 8.70
Y[Aib]QGT[αMePhe(2-F)]TSD[4Pal][αMeS]I[αMeL]LD[Orn]K([γGlu-γGlu-C18 diacid])AQ[Aib][Orn]FI[dE]YLIEGGPSSGEPPPSGTE-NH2 [Example 521] | 8.39
H-Y[Aib]QGT[αMePhe(2-F)]TSD[4Pal]SI[αMeL]LD[Orn]K([γGlu-γGlu-C18 diacid])AQ[αMe4Pal]EFI[dE][αMeY]LAEGGPSSGAPPPSGS-NH2 [Example 646] | 7.64
H-Y[Aib]QGT[αMePhe(2-F)]TSD[4Pal]SILLDKK([γGlu-γGlu-C18 diacid])AQ[Aib]AFIEYLEEGGPSSGAPPPSGTEE-NH2 [Example 609] | 8.19
H-Y[Aib]QGT[αMePhe(2-F)]TSD[4Pal][αMeS]I[αMeL]LD[Orn]K([AEEA-γGlu-C18 diacid])AQ[Aib][Orn]FI[dE]YLIEGGPSSGEPPPSGTEE-NH2 [Example 533] | 8.30
Y[Aib]QGT[αMePhe(2-F)]TSD[4Pal]SI[αMeL]LD[Orn]K([AEEA-γGlu-C18 diacid])AQ[αMe4Pal][Orn]FI[dE][αMeY]LIEGGPSSGDPPPESE-NH2 [Example 729] | 8.68
H-Y[Aib]QGT[αMePhe(2-F)]TSD[4Pal][αMeS]I[αMeL]LD[Orn]K([AEEA-γGlu-C18 diacid])AQ[αMe4Pal]EFI[dE][αMeY]LVEGGPSSGEPPPSGSEE-NH2 [Example 736] | 8.55
H-Y[Aib]QGT[αMePhe(2-F)]TSD[4Pal][αMeS]I[αMeL]LD[Orn]K([AEEA-γGlu-C18 diacid])AQ[Aib][Orn]FI[dE]YLIEGGPSSGEPPPSGTE-NH2 [Example 501] | 8.34
H-Y[Aib]QGT[αMePhe(2-F)]TSD[4Pal]SILLD[Orn]K([γGlu-γGlu-C18 diacid])AQ[Aib][Orn]FIEYLQEGGPSSGAPPPSGTEE-NH2 [Example 582] | 7.98
H-Y[Aib]QGT[αMePhe(2-F)]TSD[4Pal][αMeS]I[αMeL]LD[Orn]K([γGlu-γGlu-C18 diacid])AQ[αMe4Pal]EFI[dE][αMeY]LVEGGPSSGEPPPSGS-NH2 [Example 737] | 8.87
